Where do the numbers come from? From paper PMC10907358.

Target: GPR3 Y280A mutant (Homo sapiens, UniProt P46089, Y280A)
Sequence (P46089 whole entry Y280A): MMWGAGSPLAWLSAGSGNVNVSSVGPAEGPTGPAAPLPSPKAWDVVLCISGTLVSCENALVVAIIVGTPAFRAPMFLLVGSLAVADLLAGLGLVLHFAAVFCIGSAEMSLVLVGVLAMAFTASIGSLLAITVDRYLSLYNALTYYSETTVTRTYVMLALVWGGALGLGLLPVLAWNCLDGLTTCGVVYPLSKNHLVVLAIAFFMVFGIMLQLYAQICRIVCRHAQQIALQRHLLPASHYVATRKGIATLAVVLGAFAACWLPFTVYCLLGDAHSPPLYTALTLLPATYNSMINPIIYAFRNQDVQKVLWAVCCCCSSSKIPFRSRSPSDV
Assay: OA dose-response, GloSensor cAMP assay, AD293 stably expressing GPR3 Y280A mutant
Details: Table S3, Y280A
pEC50: −log10 of the molar value.
MEASUREMENT_NAME: pEC50

> print(dat)
                                   compound  measurement.name  reported
1  CCCCCCCC/C=C\CCCCCCCC(=O)O [OA, oleic acid]             pEC50      3.49

====

Target: GPR3 H96A mutant (Homo sapiens, UniProt P46089, H96A)
Sequence (P46089 whole entry H96A): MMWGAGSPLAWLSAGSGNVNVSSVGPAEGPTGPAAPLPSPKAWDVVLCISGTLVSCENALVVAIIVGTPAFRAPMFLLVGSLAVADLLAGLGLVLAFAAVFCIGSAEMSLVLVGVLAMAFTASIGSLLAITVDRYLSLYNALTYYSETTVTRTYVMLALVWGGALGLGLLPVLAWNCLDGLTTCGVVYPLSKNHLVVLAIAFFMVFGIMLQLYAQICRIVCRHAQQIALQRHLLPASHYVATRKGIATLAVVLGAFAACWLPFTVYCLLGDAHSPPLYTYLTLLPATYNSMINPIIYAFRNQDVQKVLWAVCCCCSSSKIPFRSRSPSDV
Experiment: OA dose-response, GloSensor cAMP assay, AD293 stably expressing GPR3 H96A mutant
Details: Table S3, H96A
MEASUREMENT_NAME: EC50

> print(dat)
                smiles.string  measurement.name  reported
1  CCCCCCCC/C=C\CCCCCCCC(=O)O              EC50    255 µM
